target: human butyrylcholinesterase (hBuChE) (Homo sapiens, UniProt P06276); assay: hBuChE inhibition assay (modified Ellman method, BuTChI substrate); format: biochemical; details: mean ± SEM of three independent measurements, each in triplicate
Sequence (P06276 29-602): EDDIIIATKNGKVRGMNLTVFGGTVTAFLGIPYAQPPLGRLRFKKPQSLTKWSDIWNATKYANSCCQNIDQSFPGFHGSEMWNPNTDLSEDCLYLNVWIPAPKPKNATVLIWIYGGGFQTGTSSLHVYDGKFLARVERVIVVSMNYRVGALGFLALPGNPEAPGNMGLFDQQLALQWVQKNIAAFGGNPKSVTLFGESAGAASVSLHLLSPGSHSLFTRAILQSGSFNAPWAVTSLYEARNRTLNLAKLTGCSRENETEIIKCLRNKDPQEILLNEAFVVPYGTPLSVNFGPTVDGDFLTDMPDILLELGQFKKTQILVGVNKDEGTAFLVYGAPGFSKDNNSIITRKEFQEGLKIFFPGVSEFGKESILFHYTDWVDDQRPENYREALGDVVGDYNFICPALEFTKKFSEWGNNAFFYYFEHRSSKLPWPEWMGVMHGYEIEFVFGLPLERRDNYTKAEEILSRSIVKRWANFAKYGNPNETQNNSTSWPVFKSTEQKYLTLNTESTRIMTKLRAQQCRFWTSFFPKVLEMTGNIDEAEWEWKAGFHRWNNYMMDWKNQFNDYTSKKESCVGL
QUANTITY: pIC50
Reminder that pIC50 means the negative base-10 logarithm of the concentration expressed in mol/L.

Q. Query pIC50 for COc1cc(-c2cccc3c2N(C)CC3)c(CN2CC[C@@]34C=C[C@H](O)C[C@@H]3Oc3c(OC)ccc(c34)C2)cc1O [narciabduliine (2), narciabduliine]
A. 5.46
